- Test system: E. coli DSM 1116
- Procedure Details: Microdilution assay, MIC
- Type: cell-based
- Condition Context: Escherichia coli, DSM1116, 20 h, read-out: MIC E. coli DSM1116
Parameter: MIC

Study these solved cases before continuing.
>>> assay_value("COc1c(NC(=O)c2ccc(NC(=O)c3ccc(NC(=O)[C@H](Cc4c[nH]nn4)NC(=O)c4ccc(NC(=O)/C(C)=C/c5ccc(O)cc5)cc4)c(OC)c3O)c(OC)c2O)ccc(C(=O)O)c1O")
"≥ 8000 µg/mL"
>>> assay_value("COc1c(NC(=O)c2ccc(NC(=O)c3ccc(NC(=O)[C@H](Cc4cccnc4)NC(=O)c4ccc(NC(=O)/C(C)=C/c5ccc(O)cc5)cc4)cc3)c(OC)c2O)ccc(C(=O)O)c1O")
"250 µg/mL"

Then there is this compound:
Q: Need MIC of COc1c(NC(=O)c2ccc(NC(=O)c3ccc(NC(=O)[C@H](CN(C)C)NC(=O)c4ccc(NC(=O)/C(C)=C/c5ccc(O)cc5)cc4)cc3)c(OC)c2O)ccc(C(=O)O)c1O , thanks.
Result: 125 µg/mL
